Source of measurements: the NIST ThermoML archive (doi:10.1021/je200681k)

Settings: Crystal; DTA
Quantity Measured: Normal melting temperature (°C)

Solved cases (2 shown):
Compound | Normal melting temperature (°C)
CC(C(=O)O)C(C)C(=O)O (centres undefined) | 121.33
O=C(O)CCCCCC(=O)O | 104.2

P. CC(CC(=O)O)CC(=O)O
Q. O=C(O)c1ccccc1
Which item exceeds the other in Normal melting temperature, P or Q ? Please identify the chosen entry by its label.
Q

---

Test: Molar enthalpy of transition or fusion
Conditions: Crystal; DSC
Quantity Measured: Molar enthalpy of transition or fusion (kcal/mol)

Compound | Molar enthalpy of transition or fusion, kcal/mol
O=C(O)c1ccccc1 | 4.47
CC(CC(=O)O)CC(=O)O | 7.41

P. O=C(O)CCCCCC(=O)O
Q. CC(C(=O)O)C(C)C(=O)O (centres undefined)
Which item exceeds the other in Molar enthalpy of transition or fusion, P or Q ? Please identify the chosen entry by its label.
P
(P: 6.88 kcal/mol, Q: 4.04 kcal/mol)
